# measured-target: Mitogen-activated protein kinase kinase kinase 3 (Homo sapiens)
# experiment-summary: modulators of MEKK3-MEK5 PB1 binding, primary screen, biochemical, wildtype MEKK3, multiplex bead flow cytometry, Alexa488-MEK5 (AID 1529);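 also: Alexa488 bead fluorescence after subtracting the streptavidin-only scavenger bead signal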
# experimental-setup: bead-based flow cytometry, Alexa488-MEK5 binding to MEKK3; at 10 µM; actives lie on both sides; 0 = blocked by unlabeled MEK5, 100 = vehicle
The whole screen tested about 290,000 compounds, of which about 4,200 (1.4%) were called active.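 The calls were made as follows: active = binding response more than 3 SD above or below the average of its plate-row segment, actives on both sides; inconclusive = wells at one plate position flagged as instrument error; inactive = the rest.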 This excerpt belongs to a sample that is enriched for actives.
Can you answer with just one of these options? 1 (yes) = active, 0 (no) = inactive

Below are worked cases with known answers.
1) COc1ccc(S(=O)(=O)N2CN(CCc3ccc(OC)c(OC)c3)c3nc4ccccc4nc32)cc1; 1 (yes)
2) C/C=C/c1ccc(OCCOc2ccc(C=O)cc2OC)c(OC)c1; 0 (no)
3) Cc1[nH]c2ccc(C(=O)N3CCN(C)CC3)cc2c1C; 0 (no)

Would you kindly look at the next entry?
Incoming: Recorded call for `COc1ccc(C(=O)NC(=S)NC2CCCCC2)cc1` ?
Outgoing: 0 (no)

----------
# measured-target: Mitogen-activated protein kinase kinase kinase 3 (Homo sapiens) (UniProt Q99759)
# Sequence (Q99759 whole entry, looked up): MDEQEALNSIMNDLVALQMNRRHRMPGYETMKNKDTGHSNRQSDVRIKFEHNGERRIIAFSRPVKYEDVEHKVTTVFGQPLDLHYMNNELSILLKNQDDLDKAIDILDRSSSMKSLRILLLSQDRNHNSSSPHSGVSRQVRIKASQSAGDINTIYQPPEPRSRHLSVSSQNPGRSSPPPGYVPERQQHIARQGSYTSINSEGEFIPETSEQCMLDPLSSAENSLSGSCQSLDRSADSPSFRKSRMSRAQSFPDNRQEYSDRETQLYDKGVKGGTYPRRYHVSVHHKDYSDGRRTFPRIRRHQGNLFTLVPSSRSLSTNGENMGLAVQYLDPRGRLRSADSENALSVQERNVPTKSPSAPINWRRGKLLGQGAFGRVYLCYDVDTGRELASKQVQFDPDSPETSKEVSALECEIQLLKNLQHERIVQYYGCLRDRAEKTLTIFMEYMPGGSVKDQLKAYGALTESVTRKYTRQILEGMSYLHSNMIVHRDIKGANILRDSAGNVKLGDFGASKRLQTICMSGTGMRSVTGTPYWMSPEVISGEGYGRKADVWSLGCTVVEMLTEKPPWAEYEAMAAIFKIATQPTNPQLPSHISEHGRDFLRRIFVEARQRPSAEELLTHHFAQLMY
# experiment-summary: modulators of MEKK3-MEK5 PB1 binding, primary screen, biochemical, wildtype MEKK3, multiplex bead flow cytometry, Alexa488-MEK5 (AID 1529);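 also: Alexa488 bead fluorescence after subtracting the streptavidin-only scavenger bead signal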
# experimental-setup: bead-based flow cytometry, Alexa488-MEK5 binding to MEKK3; at 10 µM; actives lie on both sides; 0 = blocked by unlabeled MEK5, 100 = vehicle
Screen size: about 290,000 compounds; about 4,200 (1.4%) were called active.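 Rule for the calls: active = binding response more than 3 SD above or below the average of its plate-row segment, actives on both sides; inconclusive = wells at one plate position flagged as instrument error; inactive = the rest.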 Shown is part of a subset that was picked to be rich in actives.
Respond using exactly one of the listed classes: active, inactive

Observe how each entry below is paired with its result.
1) O=C(NC1CCCC1)C(c1ccco1)N(C(=O)c1csnn1)c1ccccc1 (configuration not stated); inactive
2) O=C(O)/C(=C/c1cccnc1)NC(=O)c1ccccc1; active
3) CCC(=O)N1CCN(c2ccccc2NC(=O)COc2cccc(C)c2C)CC1; inactive
4) COc1ccc(Cl)cc1NC(=O)CCS(=O)(=O)c1cc2c(cc1C)NC(=O)CO2; inactive
5) COC(=O)c1c(NC(=O)COC(=O)[C@@H](NS(=O)(=O)c2ccccc2)C(C)C)sc2c1CCC2; active

Shift focus to the following entry.
Incoming: Please state the recorded outcome for this molecule: `CCNC(=O)c1cnn(-c2ccccc2)c1-c1ccccc1`
Outgoing: inactive

----------
# measured-target: Mitogen-activated protein kinase kinase kinase 3 (Homo sapiens) (UniProt Q99759)
# experiment-summary: modulators of MEKK3-MEK5 PB1 binding, primary screen, biochemical, wildtype MEKK3, multiplex bead flow cytometry, Alexa488-MEK5 (AID 1529);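 also: Alexa488 bead fluorescence after subtracting the streptavidin-only scavenger bead signal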
# experimental-setup: bead-based flow cytometry, Alexa488-MEK5 binding to MEKK3; at 10 µM; actives lie on both sides; 0 = blocked by unlabeled MEK5, 100 = vehicle
The campaign covered roughly 290,000 compounds. About 4,200 (1.4%) were called active.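 Rule for the calls: active = binding response more than 3 SD above or below the average of its plate-row segment, actives on both sides; inconclusive = wells at one plate position flagged as instrument error; inactive = the rest.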 Many of the other results were omitted from the sample, so actives are more common in it than they were.
Respond with a class label; see class 1 (active), class 0 (inactive)

1) CS(=O)(=O)Nc1cccc(C2=NN(S(=O)(=O)c3ccccc3)C(c3cccs3)C2)c1 (stereo not given); class 0
2) O=C(OCc1ccc([N+](=O)[O-])cc1)C1CC(=O)N(Cc2ccccc2Cl)C1 (stereo not given); class 0
3) CCOC(=O)N1CCN(C(=O)c2n[nH]c(=O)c3ccccc23)CC1; class 0
4) NS(=O)(=O)c1ccc2nc(NC(=O)C3=COCCO3)sc2c1; class 0
5) CC(=O)C(C)n1cnc2scc(-c3ccc(C)cc3)c2c1=O (stereo not given); class 0
6) CC(=O)Nc1ccc(S(=O)(=O)N(C)c2nc3ccccc3nc2Cl)cc1; class 0
7) CC1CN(C(=S)Nc2cccc(F)c2)CC(C)O1 (stereo not given); class 0
8) CC(=O)C1=C(O)C(=O)N(c2ccc(Br)cc2)C1c1ccc([N+](=O)[O-])cc1 (stereo not given); class 0

Incoming: What was the test verdict on `Cc1cc(/C=C2/C(=N)N3C(=NC2=O)SN=C3S(C)(=O)=O)c(C)n1-c1ccccc1` ?
Outgoing: class 0

Incoming: Per the records of this test, what outcome belongs to `O=c1cc(N2CCCCC2)c(-c2ccccc2)nn1Cc1cccc(F)c1` ?
Outgoing: class 1

Incoming: Which outcome was assigned to `COCCCNC(=S)N(CCN(C)C)Cc1cc2cc3c(cc2[nH]c1=O)OCCO3` in this test?
Outgoing: class 0

Incoming: What is the recorded call for this molecule in the test? `CCn1cc(/C=C(\NC(=O)c2ccc(C)cc2)C(=O)NCCN2CCOCC2)c2ccccc21`
Outgoing: class 0

Incoming: Recorded test call requested for `O=C(/C=C/c1ccco1)NC(=S)Nc1ccccc1Br`
Outgoing: class 0

Incoming: Please share the test call associated with `CC(=O)Nc1ccc(NC(=O)COc2ccc(-c3ccccc3)cc2)cc1` .
Outgoing: class 0

Incoming: Name the outcome recorded for C=CCn1c(C2CC(=O)N(c3ccc(C)cc3)C2)nc2ccccc21 (stereo not given) in the assay.
Outgoing: class 0

Incoming: Given `OCC[C@H]1C[C@H](O)[C@@H](O)[C@]2(CCCCO2)O1` , state the outcome it received in this test.
Outgoing: class 0

Incoming: State the result this test recorded for CC1(C)OC(=O)N2CCc3ccccc3C21C (stereo not given) .
Outgoing: class 1

Incoming: Write down the call the test reported for this molecule. Item: `Oc1ccc(Br)cc1/C=N/Nc1ccccn1`
Outgoing: class 0

Incoming: How was `O=C(Cc1cccc2ccccc12)Nc1ccc2oc(-c3ccccc3)nc2c1` classified in this test?
Outgoing: class 1

Incoming: What did this assay record as the result for `CCOC(=O)N1CCN(C(=O)Cn2cnc3ccccc3c2=O)CC1` ?
Outgoing: class 0

Incoming: Please share the test call associated with `O=[N+]([O-])c1ccccc1/C=C/CN1CCC(O)CC1` .
Outgoing: class 0

Incoming: Call for entry `c1ccc(-c2cc(N3CCCCC3)c3ccccc3n2)cc1` :
Outgoing: class 0

Incoming: Please state the recorded outcome for this molecule: `COc1ccc(C(=O)NCC(=O)N/N=C/c2ccc([N+](=O)[O-])o2)cc1OC`
Outgoing: class 1
